- TARGET: PDL1, Q9NZQ7
- Sequence (Q9NZQ7 whole entry): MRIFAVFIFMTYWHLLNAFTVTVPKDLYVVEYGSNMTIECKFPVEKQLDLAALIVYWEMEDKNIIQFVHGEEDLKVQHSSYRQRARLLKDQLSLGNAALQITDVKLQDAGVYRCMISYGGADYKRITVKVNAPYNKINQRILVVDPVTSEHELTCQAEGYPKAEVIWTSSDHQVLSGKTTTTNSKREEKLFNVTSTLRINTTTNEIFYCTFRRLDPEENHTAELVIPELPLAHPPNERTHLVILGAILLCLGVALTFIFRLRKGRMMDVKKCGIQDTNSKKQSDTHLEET
Could you please pick one outcome from this set? 1 for active, -1 for inactive

Previously resolved entries follow.
[[record]]
binder = "d8r1_design_ppi_638_dldesign_0_cycle1_af2pred (protein) GDARALRRAADNLARRALEELAAQTATAARAAEVAALLEAGRTEGAAKLAEAAALAAADPLLARAGAYLAAAADFLALAEREE"
classification = -1

[[record]]
binder = "d8r1_design_ppi_47_dldesign_0_cycle1_af2pred (protein) GQAALDAAAKRLDELTKEAEKASPNTGKAVEAIRDGSIRVATALFAAGDAARGRAALENGVAASEKLVEATKS"
classification = -1

[[record]]
binder = "d8r1_design_ppi_569_dldesign_0_cycle0_af2pred (protein) EPSPRVQALLHVGRAAATLIAASGTEAGRAAAAELARLAFEAAASSPEEGQKLLEEALARADEVAAGLPADAAAAVRAHLEAALAAMK"
classification = -1


Just curious, what result did d8r1_design_ppi_948_dldesign_0_cycle0_af2pred (protein) SEEAKKKYEEEKKKLEELRKEAEKLAAADPAAGGAIATLIDNGIAAGDKLYEAGSVESAAKLLESVREKAERLLAELRAAVAA get here?
-1

Call for entry d8r1_design_ppi_1447_dldesign_0_cycle1_af2pred (protein) SEAEDIASFARMATTAAASAAKKDIASAKTLMDAVAKLPGAAAHVTAAGNAAIAAAATVDPARAAELAAYLAARLAAL :
-1

Kindly provide the recorded test outcome for the following binder: d8r1_design_ppi_1324_dldesign_0_cycle1_af2pred (protein) AAAKLAALKKEIKALIGAAAAYQIAKDSSKLDEYVAKANKLIALADKDPVAAAKETAKLAEEAGDEETAKKAKEAAKEAKKL
-1

Could you kindly confirm the outcome this assay logged for d8r1_design_ppi_1314_dldesign_0_cycle0_af2pred (protein) SSEEEEAKRLAARAARAAARRLEEAAEERAAEDPEAARRAAEEGRRLAEEAEKGNAEEAKRALTEITRLLREVLA ?
-1

Which outcome was entered for the binder d8r1_design_ppi_1470_dldesign_0_cycle1_af2pred (protein) DAAAQAATALQGAKNALAAADLLEAEGTKGALLAAGSLYIAAGEQLATAYTLLGKPEEGKAVAAELNAKGKALLAAA in this test?
-1

Outcome logged for d8r1_design_ppi_700_dldesign_0_cycle1_af2pred (protein) EETKKKRDEYVKKAGEALLKADPTLTAQAAAIKDAAYNAGPAALMAAMAAAYKAAVAANPANAPYAAEAVNYAAKAAIYAKEA in this assay:
-1

In this assay, the call recorded for d8r1_design_ppi_713_dldesign_0_cycle1_af2pred (protein) AEFLAQGRAAAAATSPANAAALEAAYAAAKAQEDKMEGMKILLATATTLAAASTPAEAVLIGKAAAYFIADLLS was what?
-1

Look up the recorded call for d8r1_design_ppi_259_dldesign_0_cycle1_af2pred (protein) AAAAARLATALANAIAGTNTIKKASTAKSASQFLAASTDRLATLYAADPALVAKLRAAAAAAKAGVDAGLAAAKEALAAATAAG in this test.
-1

Check the results log: what was the call for d8r1_design_ppi_433_dldesign_0_cycle0_af2pred (protein) SEEEERKEIEEEGRAMARALRTSARHHAELAKKDPAAGRAAFDADAAAIRAGATPEQQPLVDAAVAEGRALLDAVEAAL ?
-1

Short answer needed: outcome of this test for d8r1_design_ppi_482_dldesign_0_cycle1_af2pred (protein) SESEEWIKEITDAANQAVALAKAGKTAEAYALLDATAAKAAAKSPSRGALAKGVADAMRVYIDKYAAKKA ?
1

What was the test verdict on d8r1_design_ppi_750_dldesign_0_cycle1_af2pred (protein) SRLEEARAIAERAAAEAAAAGNVAEAVAIAQRGAAEVVRTLSPEPVEAKAEVLAHHAELAQAVIDALTAAE ?
-1

Entry d8r1_design_ppi_623_dldesign_0_cycle0_af2pred (protein) SAAAAAAAAAAKAALAAAKKKAEEAVKLTPEEAAKVLGEIAAAATAALAAATDAADRAALRAAAAEVFSTGAKNLAKAAKKAEE : call = ?
-1
